# Tested on: NCI-H1092;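 further: cell growth inhibition measured with a cell viability assay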
# assayName: cells
# Format: functional, cell-based, Homo sapiens
# measurementConditions: Homo sapiens, NCI-H1092
# Description: SANGER: Inhibition of human NCI-H1092 cell growth in a cell viability assay.
endpointLabel: IC50

C[C@@H](Oc1cc(-c2cnn(C3CCNCC3)c2)cnc1N)c1c(Cl)ccc(F)c1Cl :: > 2000 nM
NC(=O)c1ccc(N(C(N)=O)c2c(F)cccc2F)nc1-c1ccc(F)cc1F :: > 2000 nM

# input Specify IC50 for `OC[C@H](Cc1ccccc1)Nc1nc(Oc2ccc3c(c2)CCC3)nc2c1ncn2Cc1ccc(-c2ccccc2)cc1` and stop.
# output > 10200 nM

# input Specify IC50 for `Cc1ccc(C(=O)Nc2ccc(CN3CCN(C)CC3)c(C(F)(F)F)c2)cc1C#Cc1cnc2cccnn12` and stop.
# output > 512 nM

Recorded values, source ChEMBL document CHEMBL1201861.
